# target-of-assay: Nav 1.7 (Homo sapiens)
# Construct: expressed in transfected cells
# experiment-description: Whole-cell voltage clamp electrophysiology, automated patch clamp (marker c in Table of Examples)
# Type: cell-based
# conditions: marker c: Automated patch clamp data; read-out: Nav 1.7 activity
Lab note: cut-off is 200 nM. Strictly less in IC50 is Satisfied. Exactly 200 nM or more is Not satisfied.

>  <structure-smiles-string>
CC(=O)N1CCC(c2nc(-c3nc(N)nc(N(C)c4ccccc4)n3)no2)CC1

>  <classification>
Not satisfied

$$$$
>  <structure-smiles-string>
CN(c1ccccc1)c1nc(N)nc(-c2noc(C(=O)NC3CCCC3)n2)n1

>  <classification>
Not satisfied

$$$$
>  <structure-smiles-string>
Nc1nc(-c2noc(-c3ccc(OCC(F)(F)F)nc3)n2)nc(N(CC(F)(F)F)c2ccccc2)n1

>  <classification>
Not satisfied

$$$$
>  <structure-smiles-string>
CN(c1ccccc1)c1nc(N)nc(-c2noc(C3CCN(C(=O)C(F)(F)F)CC3)n2)n1

>  <classification>
Not satisfied

$$$$
>  <structure-smiles-string>
COc1ccc(F)cc1-c1nc(-c2nc(N)nc(N(C)c3cccc(C)c3)n2)no1

>  <classification>
Satisfied

$$$$

Next, consider the following compound.
Req: Regarding CC(C)Oc1ccc(-c2nc(-c3nc(N)nc(N(C)c4ccccc4)n3)no2)cn1 , kindly confirm whether its IC50 is beneath 200 nM.
Resp: Satisfied

====

# target-of-assay: Nav 1.7 (Homo sapiens)
# Construct: expressed in transfected cells
# experiment-description: Whole-cell voltage clamp electrophysiology, automated patch clamp (marker c in Table of Examples)
# Format: cell-based
# conditions: marker c = Automated patch clamp data; read-out: Nav 1.7 activity
For each record, write down the corresponding IC50.
Give bare numbers, in nM.

Solved cases (5 shown):
>  <molecule>
CCS(=O)(=O)N1CC(c2nc(-c3nc(N)nc(N(C)c4ccccc4)n3)no2)C1

>  <IC50 / nM>
1730

$$$$
>  <molecule>
CN(c1ccccc1)c1nc(N)nc(-c2noc(N3CCC(OCc4ccccc4)CC3)n2)n1

>  <IC50 / nM>
597

$$$$
>  <molecule>
Nc1nc(Nc2cccc(F)c2)nc(-c2noc(C(=O)NC3COC3)n2)n1

>  <IC50 / nM>
9850

$$$$
>  <molecule>
CN(c1ccccc1)c1nc(N)nc(-c2noc(-c3ccc(OC4CCC4)nc3)n2)n1

>  <IC50 / nM>
140

$$$$
>  <molecule>
COC(=O)c1ccc(-c2nc(-c3nc(N)nc(N(C)c4ccccc4)n3)no2)nc1

>  <IC50 / nM>
308

$$$$

Provide IC50 values for the following items, in order.
1. Nc1nc(Nc2ccccc2)nc(-c2noc(N3CCC(COC4CCC4)CC3)n2)n1
2. Nc1nc(Nc2ccccc2)nc(-c2noc(N3CC(Oc4ccccc4)C3)n2)n1
3. CN(c1ccccc1)c1nc(N)nc(-c2noc(C3CCN(S(=O)(=O)CC(F)(F)F)C3)n2)n1 (centres unmarked)
4. CN(c1ccccc1)c1nc(N)nc(-c2noc(C3CCC(O)CC3)n2)n1 (centres unmarked)
5. Nc1nc(Nc2ccc(F)cc2)nc(-c2noc(-c3nccs3)n2)n1
6. CCOc1ncccc1-c1nc(-c2nc(N)nc(N(C)c3ccccc3)n2)no1

Resp:
1: 280; 2: 461; 3: 1790; 4: 2810; 5: 89; 6: 1450

For every item in the list below, what is its measured IC50?
1. CN(c1ccccc1)c1nc(N)nc(-c2noc(-c3cccnc3C(=O)OC3CCCC3)n2)n1
2. CN(c1ccccc1)c1nc(N)nc(-c2noc(-c3ccc(C(=O)NC4CCC4)nc3)n2)n1
3. CN(c1ccccc1)c1nc(N)nc(-c2noc(-c3cccc(N4CCOCC4)n3)n2)n1
4. Nc1nc(Nc2ccccc2)nc(-c2noc(-c3ccc(OCCC(F)(F)F)nc3)n2)n1
5. Nc1nc(Nc2ccccc2)nc(-c2noc(N3C[C@@H]4[C@@H](COCC(F)(F)F)[C@@H]4C3)n2)n1
6. CN(c1ccccc1)c1nc(N)nc(-c2noc(-c3cccnc3C(=O)NC3CCC3)n2)n1

Resp:
83
1070
3650
7
702
2080

====

# target-of-assay: Nav 1.7 (Homo sapiens)
# Construct: expressed in transfected cells
# experiment-description: Whole-cell voltage clamp electrophysiology, automated patch clamp (marker c in Table of Examples)
# Type: cell-based
# conditions: marker c = Automated patch clamp data; read-out: Nav 1.7 activity
Can you tell me pIC50 for the items I'm about to list?
Answers are plain numbers, as −log10 of the molar value.

Some solved entries appear below for comparison.
>  <compound>
CC(CC(F)(F)F)N1CCC(c2nc(-c3nc(N)nc(N(C)c4ccccc4)n3)no2)C1 (stereo not shown) [Example 205]

>  <pIC50>
5.82

$$$$
>  <compound>
CN(c1ccccc1)c1nc(N)nc(-c2noc(C(=O)N3CCC(SCC(F)(F)F)CC3)n2)n1 [Example 465]

>  <pIC50>
5.98

$$$$
>  <compound>
CN(c1ccccc1)c1nc(N)nc(-c2noc(C(=O)N3CCC(COCCC(F)(F)F)CC3)n2)n1 [Example 464]

>  <pIC50>
6.14

$$$$

Next item in the queue.
Req: Param readout = pIC50; param system = Nav 1.7 (Homo sapiens); param query = CC(C)C(=O)NC1CCC(c2nc(-c3nc(N)nc(N(C)c4ccccc4)n3)no2)CC1 (stereo not shown) [Example 425] ; response: value
Resp: 5.61

====

# target-of-assay: Nav 1.7 (Homo sapiens, UniProt Q15858)
# Construct: expressed in transfected cells
# Sequence (Q15858 whole entry): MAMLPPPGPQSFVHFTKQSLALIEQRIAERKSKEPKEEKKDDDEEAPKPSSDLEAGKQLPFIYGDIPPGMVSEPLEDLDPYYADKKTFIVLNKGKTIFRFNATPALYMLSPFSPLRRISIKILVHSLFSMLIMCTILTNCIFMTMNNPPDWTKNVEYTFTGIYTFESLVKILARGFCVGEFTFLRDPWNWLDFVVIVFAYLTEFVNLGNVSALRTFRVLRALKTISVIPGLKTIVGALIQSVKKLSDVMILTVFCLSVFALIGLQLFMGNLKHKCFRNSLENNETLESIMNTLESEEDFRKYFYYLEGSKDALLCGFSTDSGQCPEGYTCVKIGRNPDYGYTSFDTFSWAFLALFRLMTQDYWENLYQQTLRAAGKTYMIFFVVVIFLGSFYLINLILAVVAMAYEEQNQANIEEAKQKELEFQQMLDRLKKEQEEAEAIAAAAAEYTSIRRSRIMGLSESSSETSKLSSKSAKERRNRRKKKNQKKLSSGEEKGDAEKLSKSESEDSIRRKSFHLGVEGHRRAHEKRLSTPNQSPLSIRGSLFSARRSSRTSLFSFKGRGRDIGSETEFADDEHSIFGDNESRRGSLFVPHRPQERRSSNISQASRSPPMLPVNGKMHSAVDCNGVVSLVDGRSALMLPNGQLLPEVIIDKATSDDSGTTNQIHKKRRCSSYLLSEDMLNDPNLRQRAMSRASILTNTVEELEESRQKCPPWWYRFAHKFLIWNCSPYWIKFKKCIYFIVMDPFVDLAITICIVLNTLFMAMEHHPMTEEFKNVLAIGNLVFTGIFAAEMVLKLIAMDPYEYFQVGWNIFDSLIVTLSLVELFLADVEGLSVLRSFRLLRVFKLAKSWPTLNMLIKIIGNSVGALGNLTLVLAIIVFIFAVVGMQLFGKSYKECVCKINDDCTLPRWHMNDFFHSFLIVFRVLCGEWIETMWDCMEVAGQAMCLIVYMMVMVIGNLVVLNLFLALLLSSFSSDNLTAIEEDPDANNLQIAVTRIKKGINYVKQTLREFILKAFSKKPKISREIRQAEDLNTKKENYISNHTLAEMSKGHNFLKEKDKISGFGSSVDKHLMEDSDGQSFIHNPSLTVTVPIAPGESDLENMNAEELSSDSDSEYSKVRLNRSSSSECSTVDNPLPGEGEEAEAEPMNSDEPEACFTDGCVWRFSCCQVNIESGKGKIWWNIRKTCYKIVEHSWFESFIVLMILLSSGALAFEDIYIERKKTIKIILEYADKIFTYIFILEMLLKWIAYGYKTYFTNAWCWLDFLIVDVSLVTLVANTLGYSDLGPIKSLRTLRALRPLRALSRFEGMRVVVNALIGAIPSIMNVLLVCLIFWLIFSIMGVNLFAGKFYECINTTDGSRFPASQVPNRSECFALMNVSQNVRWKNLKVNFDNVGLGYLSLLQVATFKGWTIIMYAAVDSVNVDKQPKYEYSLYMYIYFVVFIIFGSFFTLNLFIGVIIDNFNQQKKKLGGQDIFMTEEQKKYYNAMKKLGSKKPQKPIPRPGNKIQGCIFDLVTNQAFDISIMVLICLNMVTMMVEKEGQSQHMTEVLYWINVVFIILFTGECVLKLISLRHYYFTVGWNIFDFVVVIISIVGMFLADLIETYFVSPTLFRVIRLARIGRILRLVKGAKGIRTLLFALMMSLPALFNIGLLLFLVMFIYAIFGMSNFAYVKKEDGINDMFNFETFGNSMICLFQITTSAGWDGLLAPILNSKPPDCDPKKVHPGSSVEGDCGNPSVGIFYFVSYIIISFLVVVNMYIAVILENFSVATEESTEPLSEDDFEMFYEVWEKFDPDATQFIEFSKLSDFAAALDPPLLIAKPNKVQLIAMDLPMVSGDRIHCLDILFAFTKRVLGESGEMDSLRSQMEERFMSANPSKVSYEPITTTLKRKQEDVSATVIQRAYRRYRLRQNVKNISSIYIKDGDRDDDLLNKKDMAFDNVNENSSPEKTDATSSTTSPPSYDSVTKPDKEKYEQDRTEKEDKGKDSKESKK
# experiment-description: Whole-cell voltage clamp electrophysiology, manual patch clamp (marker b in Table of Examples)
# Assay type: cell-based
# conditions: marker b: Manual patch clamp data; read-out: Nav 1.7 activity
Classify: condition met when IC50 is strictly less than 600 nM; condition not met when IC50 is not.

Worked examples follow.
>  <structure-smiles-string>
CCN(c1ccccc1)c1nc(N)nc(-c2noc(-c3nccs3)n2)n1

>  <classification>
condition not met

$$$$
>  <structure-smiles-string>
CN(c1ccccc1)c1nc(N)nc(-c2noc(-c3nccs3)n2)n1

>  <classification>
condition met

$$$$
>  <structure-smiles-string>
COc1ccc(N(C)c2nc(N)nc(-c3noc(-c4ccco4)n3)n2)cc1

>  <classification>
condition not met

$$$$
>  <structure-smiles-string>
CN(c1ccccc1)c1nc(N)nc(-c2noc(-c3ccccc3)n2)n1

>  <classification>
condition met

$$$$

Consider the additional compound presented here.
Req: Is it true that IC50 reported for COc1cccc(N(C)c2nc(N)nc(-c3noc(-c4ccco4)n3)n2)c1 is less than 600 nM?
Resp: condition not met

====

# target-of-assay: Nav 1.7 (Homo sapiens)
# Construct: expressed in transfected cells
# experiment-description: Whole-cell voltage clamp electrophysiology, automated patch clamp (marker c in Table of Examples)
# Type: cell-based
# conditions: marker c = Automated patch clamp data; read-out: Nav 1.7 activity
pIC50: −log10 of the molar value.
Each entry gets not satisfied if its pIC50 stays under 6, and satisfied if its pIC50 is 6 or above.

# count of solved cases: 4
>  <compound>
CN(c1ccccc1)c1nc(N)nc(-c2noc(-c3ccc(CSCC(F)(F)F)nc3)n2)n1

>  <classification>
satisfied

$$$$
>  <compound>
CN(c1ccccc1)c1nc(N)nc(-c2noc(C3CCC(NC(=O)CC(F)(F)F)CC3)n2)n1 (stereo not shown)

>  <classification>
not satisfied

$$$$
>  <compound>
CN(C)C(=O)c1ccc(-c2nc(-c3nc(N)nc(N(C)c4ccccc4)n3)no2)cn1

>  <classification>
not satisfied

$$$$
>  <compound>
CC1CCN(c2nc(-c3nc(N)nc(Nc4ccccc4)n3)no2)CC1

>  <classification>
not satisfied

$$$$

Req: // inclusive: pIC50 at least 6? input: Nc1nc(Nc2cccc(F)c2)nc(-c2noc(C(=O)N3CCOCC3)n2)n1
Resp: not satisfied

Req: Has CN(c1ccccc1)c1nc(N)nc(-c2noc(-c3ncccc3C(=O)NC3CC3)n2)n1 a recorded pIC50 greater than or equal to 6?
Resp: not satisfied

Req: Could you tell me if the measured pIC50 of CN(c1ccccc1)c1nc(N)nc(-c2noc(-c3ccc(COCC(F)(F)F)cc3)n2)n1 reaches 6 or more?
Resp: satisfied

Req: Item CN(c1ccccc1)c1nc(N)nc(-c2noc(N3CCN(C(=O)C(F)(F)F)CC3)n2)n1 with pIC50 of 6 or above?
Resp: not satisfied

Req: Does the compound CN(c1ccccc1)c1nc(N)nc(-c2noc(-c3ccc([S+]([O-])CC4CC4)nc3)n2)n1 (stereo not shown) have recorded pIC50 that is 6 or more?
Resp: satisfied

Req: Tell me whether pIC50 is at least 6 here: Nc1nc(Nc2cccc(F)c2)nc(-c2noc(C(=O)NC3CCCC3)n2)n1
Resp: not satisfied

Req: API: above_or_equal(metric=pIC50, cutoff=6) for item CN(c1ccccc1)c1nc(N)nc(-c2noc(N3CC(COc4ccccc4)C3)n2)n1
Resp: not satisfied

Req: Given the entry CN(c1ccccc1)c1nc(N)nc(-c2noc(-c3ncccc3C(=O)OC3CCCC3)n2)n1 , answer whether its pIC50 meets or surpasses 6.
Resp: satisfied

Req: Tell me whether pIC50 is at least 6 here: CN(c1ccccc1)c1nc(N)nc(-c2noc(N3CCC(COCCC(F)(F)F)CC3)n2)n1
Resp: satisfied
